Tested on: PC-3 prostate
Experiment: NCI-60 one-dose screen, 48 h (100 = growth as untreated, 0 = no growth, -100 = all killed)
Settings: 10 µM unless noted
Compounds without any hit were thinned out: in the full panel of roughly 83,000, 20% have a hit.
Below is a list of entries, each paired with its recorded growth value.
READOUT NAME: growth (%)

COMPOUND	TEST SYSTEM	READOUT NAME	MEASURED RESULT
COc1ccccc1/C=C1\COc2ccc(O)c(O)c2C1=O	PC-3 prostate	growth	33.1
CCCCC1=C(Br)C(=O)c2nc(C)ccc2C1=O	PC-3 prostate	growth	80.3
CC12OC(CC(O)C1O)n1c3ccccc3c3c4c(c5c6ccccc6n2c5c31)C(=O)N(CCN1CCOCC1)C4=O (centres undefined)	PC-3 prostate	growth	7.32
C=C(c1ccc(C(=O)O)cc1)c1cc2c(cc1C)C(C)(C)CCC2(C)C	PC-3 prostate	growth	68.9
NS(=O)(=O)c1ccc(C(=O)N=Nc2c(O)[nH]c3c(F)cccc23)cc1	PC-3 prostate	growth	94.9
CN(C)C(=O)c1cc2cnc(Nc3ccc(-c4csc5c(=S)cc(N6CCOCC6)oc45)cc3)nc2n1C1CCCC1	PC-3 prostate	growth	-4.89
CCOC(=O)c1cnn(-c2ccc(S(N)(=O)=O)cc2)c1N	PC-3 prostate	growth	103
COc1ccc2c(c1)c(C(=O)c1nc(-c3cn(C)c4ccccc34)no1)cn2C	PC-3 prostate	growth	83.8
CC(=O)N1N=C(c2ccc(Nc3nc(Nc4ccc(F)cc4)nc(Nc4ccc(F)cc4)n3)cc2)CC1c1ccccc1 (centres undefined)	PC-3 prostate	growth	70
CS(=O)(=O)Nc1cc(-c2ccc3ncnc(Nc4ccc(F)c(Cl)c4)c3c2)cnc1Cl	PC-3 prostate	growth	-7.94
N=C(N)c1ccc(-c2ccc(-c3ccc(F)cc3)s2)nc1	PC-3 prostate	growth	65.3
CC(C)=CCc1cc(O)c(O)c2oc3cc(O)cc(O)c3c(=O)c12	PC-3 prostate	growth	68.8
Cc1ccc(S(=O)(=O)OC[C@@]2(C)CC[C@]3(C)CC[C@]4(C)C(=C3C2)C=C[C@@H]2[C@@]3(C)CCCNC(C)(C)[C@@H]3CC[C@]24C)cc1	PC-3 prostate	growth	43.5
COc1cc(C=O)ccc1Oc1ccc([N+](=O)[O-])cc1[N+](=O)[O-]	PC-3 prostate	growth	94.4
COc1ccc(N2CCN(S(=O)(=O)c3oc(-c4ccccc4)nc3C#N)CC2)cc1	PC-3 prostate	growth	92
COc1ccc(/C=C2\COc3ccc(O)c(O)c3C2=O)c(OC)c1OC	PC-3 prostate	growth	36.8
COc1ccc(-c2[nH]c3ccccc3c2-c2ccc(OC)cc2)cc1	PC-3 prostate	growth	47.5
C[C@]12CCc3c(ccc4cc(O)ccc34)[C@@H]1C[C@H](O)[C@@H]2O	PC-3 prostate	growth	78.5
NC(=O)c1c(NC(=O)/C=C/c2cccs2)sc2c1CCC(=O)C2	PC-3 prostate	growth	13.4
Cc1ccccc1SSc1ccccc1C	PC-3 prostate	growth	66.7
CCCCC(NC(=O)CN1C(=O)/C(=C/C(C)=C/c2ccccc2)SC1=S)C(=O)O (centres undefined)	PC-3 prostate	growth	107
Cc1c(O)c(O)cc2c3c(oc12)CC(c1ccc2c(c1)OCO2)CC3=O (centres undefined)	PC-3 prostate	growth	81.1
CCN(C(=O)N1CCN(c2cc3c(cc2F)c(=O)c(C(=O)O)cn3C2CC2)CC1)c1nc(-c2ccccc2)cs1	PC-3 prostate	growth	11.5
CCOC(=O)c1cnn(CC(O)CC)c1NC(=O)NCc1ccccc1C(F)(F)F (centres undefined)	PC-3 prostate	growth	90.8
COc1ccc(-c2ccccc2)cc1-c1c(Nc2cc(Cl)cc(Cl)c2O)c(=O)c1=O	PC-3 prostate	growth	12.5
Cc1ccc2[nH]c(=S)[nH]c(=O)c2c1	PC-3 prostate	growth	102
C=CCNC(=O)Cc1c(-c2ccc(OC)cc2)oc2c(OC)c3c(c(OC)c12)OCO3	PC-3 prostate	growth	95.2
O=C1c2cccc3cccc(c23)C(=O)N1N1C(=O)c2cccc3c(N4CCNCC4)ccc(c23)C1=O	PC-3 prostate	growth	85.1
N#C/C(=N\Nc1ccc(Cl)cc1)C(=O)Nc1cc(-c2ccccc2)nn1-c1ccccc1	PC-3 prostate	growth	6.71
CCOC(=O)CC1CSC(c2cccc(Cl)c2)=N1 (centres undefined)	PC-3 prostate	growth	103
O=C(Nc1ncc(Cc2cccc(C(F)(F)F)c2)s1)c1ccc(-n2cnnn2)cc1	PC-3 prostate	growth	54.1
CCN1C(=O)N(c2ccccc2)C2NC(=S)N(/N=C/C=C/c3ccccc3)C21 (centres undefined)	PC-3 prostate	growth	14
Clc1ccc2c(c1)N(c1ncnc3ccc(-c4cnc5[nH]ccc5c4)cc13)CC2	PC-3 prostate	growth	28.2
COc1cc2c(cc1OCCCOC1=C=C=C(c3ccc4c(c3)c3cc(-c5ccc(OCCCOc6cc7c(cc6OC)C(=O)N6CCC[C@H]6C=N7)cc5)ccc3n4S(=O)(=O)c3ccc(C)cc3)C=C1)N=C[C@@H]1CCCN1C2=O	PC-3 prostate	growth	42.7
COc1ccc(C/C(C)=C(/c2ccc(OCCN3CCCC3)cc2)c2ccc(OC(=O)NCc3ccccc3)cc2)cc1	PC-3 prostate	growth	67.3
CCOC(=O)c1c(-c2ccc(C)cc2)c(C#N)c(=O)n(-c2cccc(C(F)(F)F)c2)c1N	PC-3 prostate	growth	110
Cc1ccc(-c2nc3nc(-c4ccc(Br)cc4)nc(N4CCCNCC4)c3o2)cc1	PC-3 prostate	growth	-52
CN1C(=O)/C(=C/c2ccc(C(=O)Nc3ncc(Cc4ccccc4Cl)s3)cc2)SC1=S	PC-3 prostate	growth	77.6
O=C(Nc1ccc2ncsc2c1)c1csc(Nc2ccc3[nH]ncc3c2)n1	PC-3 prostate	growth	40.6
